Target: CYP2C19 (Homo sapiens (Human), UniProt P33261)
Sequence (P33261 whole entry): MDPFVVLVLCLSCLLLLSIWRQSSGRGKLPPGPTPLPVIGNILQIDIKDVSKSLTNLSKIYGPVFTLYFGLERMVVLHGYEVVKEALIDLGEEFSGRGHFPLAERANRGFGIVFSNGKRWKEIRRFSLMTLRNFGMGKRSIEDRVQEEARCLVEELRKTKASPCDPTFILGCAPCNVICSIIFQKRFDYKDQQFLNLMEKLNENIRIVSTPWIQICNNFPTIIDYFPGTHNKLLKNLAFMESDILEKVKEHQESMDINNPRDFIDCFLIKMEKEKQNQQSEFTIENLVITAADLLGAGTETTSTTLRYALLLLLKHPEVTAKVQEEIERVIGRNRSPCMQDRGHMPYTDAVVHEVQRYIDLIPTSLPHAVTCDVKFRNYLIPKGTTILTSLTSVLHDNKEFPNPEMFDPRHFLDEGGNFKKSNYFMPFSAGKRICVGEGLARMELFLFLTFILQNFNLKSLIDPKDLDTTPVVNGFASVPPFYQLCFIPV
Test: Inhibition of liver cytochrome P450 enzymes (pooled human liver microsomes), CYP2C19
Conditions: read-out: CYP2C19 IC50
Experimental: Solutions of each test compound were separately prepared at concentrations of 20000, 6000, 2000, 600, 200, and 60 μM by serial dilution with DMSO:MeCN (50:50 v/v). […] Substrate solution and microsome suspension were combined in a 1:1 volume ratio, mixed, and distributed to reaction wells of a PCR plate. […] A portion of the supernatant was analyzed by gradient reverse-phase HPLC with detection by electrospray ionization triple quadrupole mass spectrometry in the positive ion mode. […]
pIC50: −log10 of the molar value.
Endpoint: pIC50

a = COc1cc2ccc(C(O)(c3c[nH]nn3)C(C)C)cc2cc1OC (centres unmarked)
b = CC(C)C(O)(c1ccc2cc(OC(F)F)c(OC(F)F)cc2c1)c1c[nH]nn1 (centres unmarked)
QUERY: Lab log: flag the item ( a or b ) with the smaller pIC50 figure. Answer format: the label of the selected item.
RESULT: a
(a: 4.48, b: 4.72)

Just for reference, patent US8623892B2 is where these values come from.
